TARGET OR TEST SYSTEM: Alpha-1D adrenergic receptor (Rattus norvegicus)
Sequence (P23944 whole entry): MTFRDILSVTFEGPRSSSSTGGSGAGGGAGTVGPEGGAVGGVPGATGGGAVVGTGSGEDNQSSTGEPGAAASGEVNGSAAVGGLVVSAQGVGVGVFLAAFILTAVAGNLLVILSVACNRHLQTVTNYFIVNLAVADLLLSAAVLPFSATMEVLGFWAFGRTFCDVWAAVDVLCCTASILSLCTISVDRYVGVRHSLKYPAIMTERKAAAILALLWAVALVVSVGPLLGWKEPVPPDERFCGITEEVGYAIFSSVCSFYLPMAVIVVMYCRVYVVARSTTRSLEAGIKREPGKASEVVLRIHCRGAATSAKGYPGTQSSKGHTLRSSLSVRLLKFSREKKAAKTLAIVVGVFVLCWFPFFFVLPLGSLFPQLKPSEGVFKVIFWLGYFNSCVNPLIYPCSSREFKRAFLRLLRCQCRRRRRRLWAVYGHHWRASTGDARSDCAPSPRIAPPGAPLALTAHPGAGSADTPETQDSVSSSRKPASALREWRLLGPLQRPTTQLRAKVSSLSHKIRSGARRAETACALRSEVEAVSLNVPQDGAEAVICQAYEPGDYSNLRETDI
EXPERIMENT: In vitro binding affinity using [3H]prazosin as radioligand against adrenoceptor alpha 1d expressed in LTK cell
Type: cell-based
Measured Ki, listed per entry for reference.
Respond numerically; units are nM and should not be typed.

SAMPLE SMILES	TARGET OR TEST SYSTEM	MEASURED METRIC	QUANTITATIVE RESULT
COc1cccc2c1CC[C@H]1CN(CCn3c(=O)[nH]c4c(sc5ncc(Cl)nc54)c3=O)C[C@@H]21	Alpha-1D adrenergic receptor (Rattus norvegicus)	Ki	3.83

Now turn to the next molecule.
Requested read-out: Ki. Entry: COc1cccc2c1CC[C@H]1CN(CCn3c(=O)[nH]c4c(sc5ccc(Cl)nc54)c3=O)C[C@@H]21
0.61

---

TARGET OR TEST SYSTEM: Alpha-1B adrenergic receptor (Mesocricetus auratus, UniProt P18841)
Sequence (P18841 whole entry): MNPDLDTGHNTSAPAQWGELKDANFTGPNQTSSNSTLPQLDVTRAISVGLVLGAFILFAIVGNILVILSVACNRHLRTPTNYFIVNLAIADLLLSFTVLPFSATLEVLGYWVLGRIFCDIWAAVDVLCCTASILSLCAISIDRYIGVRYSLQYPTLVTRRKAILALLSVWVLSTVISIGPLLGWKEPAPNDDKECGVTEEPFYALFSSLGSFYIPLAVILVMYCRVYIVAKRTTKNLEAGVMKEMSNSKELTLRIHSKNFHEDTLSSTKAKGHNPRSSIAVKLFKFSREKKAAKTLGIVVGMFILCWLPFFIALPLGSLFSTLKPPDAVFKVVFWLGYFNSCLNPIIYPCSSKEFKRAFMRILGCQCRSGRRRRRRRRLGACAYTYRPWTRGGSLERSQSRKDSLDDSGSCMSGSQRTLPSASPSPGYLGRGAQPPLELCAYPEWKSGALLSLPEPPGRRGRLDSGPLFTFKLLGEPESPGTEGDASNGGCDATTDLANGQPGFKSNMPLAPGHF
EXPERIMENT: In vitro binding affinity using [3H]prazosin as radioligand against adrenoceptor alpha 1b expressed in LTK cell
Assay type: cell-based
Measured Ki, listed per entry for reference.
Field: value (include unit after the number)

SAMPLE SMILES	RESULT
CCOc1ccccc1OCCN[C@H](C)Cc1ccc(OC)c(S(N)(=O)=O)c1	0.2 nM

Requested read-out: Ki. Entry: COc1cccc2c1CC[C@H]1CN(CCn3c(=O)[nH]c4c(sc5ncc(Cl)nc54)c3=O)C[C@@H]21
35.1 nM

Cool, now COc1cccc2c1CC[C@H]1CN(CCn3c(=O)[nH]c4c(sc5ccc(Cl)nc54)c3=O)C[C@@H]21
4.15 nM

---

TARGET OR TEST SYSTEM: Alpha-1A adrenergic receptor (Rattus norvegicus)
EXPERIMENT: In vitro binding affinity using [3H]prazosin as radioligand against alpha-1A adrenergic receptor
Measured pKi, listed per entry for reference.
On this scale, pKi is minus log10 of a concentration expressed in M (mol/L).

Answered examples (3):
MOLECULE	QUANTITATIVE RESULT
COc1cccc2c1CCC1CN(CCn3c(=O)[nH]c4c(sc5ccccc54)c3=O)CC21 (stereo in doubt; 21)	8.97
COc1cccc2c1CC[C@H]1CN(CCn3c(=O)[nH]c4c(sc5cc(C#N)ccc54)c3=O)C[C@@H]21	9.40
COc1cccc2c1CC[C@H]1CN(CCn3c(=O)[nH]c4c(sc5ccc([N+](=O)[O-])cc54)c3=O)C[C@@H]21	8.89

Requested read-out: pKi. Entry: COc1cccc2c1CC[C@H]1CN(CCn3c(=O)[nH]c4c(sc5nc(C)cnc54)c3=O)C[C@@H]21
9.31

---

Species: Canis familiaris
EXPERIMENT: Intraurethral pressure (IUP) in Beagle dogs values are expressed as pseudo pA2 values.
Assay type: functional, Canis lupus familiaris, Urethra
Measured IUP, listed per entry for reference.
Respond numerically, and do not add a unit to the figure.

Answered examples (3):
COMPOUND	QUANTITATIVE RESULT
COc1cc2nc(N3CCN(C(=O)C4CCCO4)CC3)nc(N)c2cc1OC (centres undefined)	7.02
COc1cccc2c1CC[C@H]1CN(CCn3c(=O)[nH]c4c(sc5ncc(Cl)nc54)c3=O)C[C@@H]21	8.28
CCOc1ccccc1OCCN[C@H](C)Cc1ccc(OC)c(S(N)(=O)=O)c1	8.87

Now turn to the next compound.
Requested read-out: IUP. Entry: COc1cc2nc(N(C)CCCNC(=O)C3CCCO3)nc(N)c2cc1OC (centres undefined)
6.87

---

TARGET OR TEST SYSTEM: Alpha-1A adrenergic receptor (Rattus norvegicus, UniProt P43140)
Sequence (P43140 whole entry): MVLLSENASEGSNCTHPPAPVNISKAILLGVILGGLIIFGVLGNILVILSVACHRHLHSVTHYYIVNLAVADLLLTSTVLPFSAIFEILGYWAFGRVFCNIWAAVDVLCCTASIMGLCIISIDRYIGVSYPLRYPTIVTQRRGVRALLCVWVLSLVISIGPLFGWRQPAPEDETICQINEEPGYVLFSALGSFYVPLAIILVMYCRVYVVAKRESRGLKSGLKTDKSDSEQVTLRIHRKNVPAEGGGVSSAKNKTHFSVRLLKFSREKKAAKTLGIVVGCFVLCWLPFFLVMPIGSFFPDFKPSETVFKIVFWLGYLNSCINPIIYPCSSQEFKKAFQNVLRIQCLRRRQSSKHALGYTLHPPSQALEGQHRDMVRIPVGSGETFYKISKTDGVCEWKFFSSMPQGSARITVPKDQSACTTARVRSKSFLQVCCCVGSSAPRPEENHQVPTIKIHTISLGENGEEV
EXPERIMENT: In vitro binding affinity using [3H]prazosin as radioligand against alpha-1A adrenergic receptor
Measured pKi, listed per entry for reference.
On this scale, pKi is minus log10 of a concentration expressed in M (mol/L).

Answered examples (3):
SAMPLE SMILES	pKi
COc1ccc2sc3c(=O)n(CCN4C[C@@H]5CCc6c(OC)cccc6[C@@H]5C4)c(=O)[nH]c3c2n1	9.18
COc1cccc2c1CC[C@H]1CN(CCn3c(=O)[nH]c4c(sc5c(Cl)ccnc54)c3=O)C[C@@H]21	8.50
COc1cccc2c1CC[C@H]1CN(CCn3c(=O)[nH]c4c(sc5cnccc54)c3=O)C[C@@H]21	9.28

Now turn to the next compound.
Requested read-out: pKi. Entry: COc1cccc2c1CC[C@H]1CN(CCn3c(=O)[nH]c4c(sc5ccc(C(=O)N(C)C)cc54)c3=O)C[C@@H]21
9.55

---

TARGET OR TEST SYSTEM: UniProt P23944
EXPERIMENT: In vitro binding affinity using [3H]prazosin as radioligand against alpha-1D adrenergic receptor expressed in LTK cell
Type: cell-based
pKi: −log10 of the molar value.
Class boundaries, taken from values of pKi, are as follows: low bracket (below 8), middle bracket (8 to below 9), high bracket (9 or more)

MOLECULE	LABEL CLASS
COc1cccc2c1CC[C@H]1CN(CCn3c(=O)[nH]c4c(sc5ncc(-c6ccccc6)nc54)c3=O)C[C@@H]21	low bracket
COc1cccc2c1CC[C@H]1CN(CCn3c(=O)[nH]c4c(sc5cncnc54)c3=O)C[C@@H]21	middle bracket
COc1cccc2c1CC[C@H]1CN(CCn3c(=O)[nH]c4c(sc5nc(-c6ccccc6)cnc54)c3=O)C[C@@H]21	low bracket
COc1cccc2c1CC[C@H]1CN(CCn3c(=O)[nH]c4c(sc5c(Cl)cccc54)c3=O)C[C@@H]21	low bracket
COc1cccc2c1CC[C@H]1CN(CCn3c(=O)[nH]c4c(sc5ccc(C(N)=O)cc54)c3=O)C[C@@H]21	high bracket

Form field 'band' for COc1cccc2c1CC[C@H]1CN(CCn3c(=O)[nH]c4c(sc5cnccc54)c3=O)C[C@@H]21
high bracket

Cool, now COc1cccc2c1CC[C@H]1CN(CCn3c(=O)[nH]c4c(sc5nccnc54)c3=O)C[C@@H]21
middle bracket

Cool, now COc1cccc2c1CC[C@H]1CN(CCn3c(=O)[nH]c4c(sc5ccncc54)c3=O)C[C@@H]21
high bracket

Cool, now COc1cccc2c1CCC1CN(CCCCn3c(=O)[nH]c4c(sc5ccccc54)c3=O)CC21 (cis isomer)
middle bracket

Cool, now COc1cccc2c1CC[C@H]1CN(CCn3c(=O)[nH]c4c(sc5ccc(Cl)cc54)c3=O)C[C@@H]21
high bracket

---

Measured Ki, listed per entry for reference.
TARGET OR TEST SYSTEM: Alpha-1B adrenergic receptor (Mesocricetus auratus)
EXPERIMENT: In vitro binding affinity using [3H]prazosin as radioligand against alpha-1B adrenergic receptor expressed in LTK cell
Assay type: cell-based
Respond numerically; units are nM and should not be typed.

SAMPLE SMILES	Ki (nM)
COc1cccc2c1CC[C@H]1CN(CCn3c(=O)[nH]c4c(sc5nccnc54)c3=O)C[C@@H]21	12.5
COc1cccc2c1CC[C@H]1CN(CCn3c(=O)[nH]c4c(sc5cc(C#N)ccc54)c3=O)C[C@@H]21	6.2

Requested read-out: Ki. Entry: COc1cccc2c1CC[C@H]1CN(CCn3c(=O)[nH]c4c(sc5cnccc54)c3=O)C[C@@H]21
3.33

---

TARGET OR TEST SYSTEM: Alpha-1A adrenergic receptor (Rattus norvegicus)
Sequence (P43140 whole entry): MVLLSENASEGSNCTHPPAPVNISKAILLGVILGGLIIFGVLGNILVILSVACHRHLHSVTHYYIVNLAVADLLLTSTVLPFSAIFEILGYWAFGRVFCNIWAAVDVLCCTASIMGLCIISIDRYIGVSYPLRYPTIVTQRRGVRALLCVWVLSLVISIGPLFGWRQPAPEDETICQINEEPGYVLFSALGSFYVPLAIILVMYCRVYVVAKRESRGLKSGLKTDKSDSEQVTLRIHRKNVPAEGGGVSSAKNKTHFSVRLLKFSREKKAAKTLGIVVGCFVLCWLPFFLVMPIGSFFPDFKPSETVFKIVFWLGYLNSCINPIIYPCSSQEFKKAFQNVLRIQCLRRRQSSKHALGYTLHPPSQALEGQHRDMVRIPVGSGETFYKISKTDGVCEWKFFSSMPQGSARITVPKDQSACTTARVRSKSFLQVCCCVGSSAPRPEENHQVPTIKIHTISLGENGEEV
EXPERIMENT: In vitro binding affinity using [3H]prazosin as radioligand against alpha-1A adrenergic receptor
Measured pKi, listed per entry for reference.
On this scale, pKi is minus log10 of a concentration expressed in M (mol/L).

MOLECULE	pKi
COc1cccc2c1CC[C@H]1CN(CCn3c(=O)[nH]c4c(sc5c(OC)ccnc54)c3=O)C[C@@H]21	9.10
COc1cccc2c1CC[C@H]1CN(CCn3c(=O)[nH]c4c(sc5ncncc54)c3=O)C[C@@H]21	9.17
COc1cccc2c1CC[C@H]1CN(CCn3c(=O)[nH]c4c(sc5ncccc54)c3=O)C[C@@H]21	9.23

Now turn to the next molecule.
Requested read-out: pKi. Entry: COc1cccc2c1CCC1CN(CCn3c(=O)[nH]c4c(sc5ccccc54)c3=O)CC21 (stereo in doubt; 18)
9.19

All values here come from ChEMBL document CHEMBL1132919.
